Origin of values: ChEMBL document CHEMBL1131723

- System: Escherichia coli
- EXPERIMENT_DESCRIPTION: In vitro antibacterial activity against Escherichia coli UBMS 88-1 Tet B
- Type: functional
REPORTED_ENDPOINT: MIC (µg/mL)

MOLECULE: CN(C)c1cc(NC(=O)CNCC2CC2)c(O)c2c1CC1CC3[C@H](N(C)C)C(=O)C(C(N)=O)=C(O)[C@@]3(O)C(=O)C1=C2O (some centres not stated)
REPORTED_ENDPOINT: MIC
ASSAY_RESULT: 0.5

[1] CNCC(=O)Nc1cc(N(C)C)c2c(c1O)C(=O)C1=C(O)[C@]3(O)C(O)=C(C(N)=O)C(=O)[C@@H](N(C)C)C3CC1C2 (some centres not stated)
[2] CN(C)c1cc(NC(=O)CN2CCCCC2)c(O)c2c1CC1CC3[C@H](N(C)C)C(=O)C(C(N)=O)=C(O)[C@@]3(O)C(=O)C1=C2O (some centres not stated)
[3] CN(C)CC(=O)Nc1cc(N(C)C)c2c(c1O)C(=O)C1=C(O)[C@]3(O)C(O)=C(C(N)=O)C(=O)[C@@H](N(C)C)C3CC1C2 (some centres not stated)
[4] CN(C)c1cc(NC(=O)CNC2CC2)c(O)c2c1CC1CC3[C@H](N(C)C)C(=O)C(C(N)=O)=C(O)[C@@]3(O)C(=O)C1=C2O (some centres not stated)
Q) Kindly order the items shown according to MIC, from the highest value down. To answer, write out the labels according to the requested order.
A) 4, 1, 2, 3
(4: 4 µg/mL, 1: 1 µg/mL, 2: 0.5 µg/mL, 3: 0.25 µg/mL)
